- test protocol: BSK_LPS_PGE2: BioMAP Diversity Plus: LPS Assay for Prostaglandin E2 (PGE2) Biomarker Activity (AID 2283082)
- condition info: primary human HUVEC with PBMC; actives raise or lower the signal
- Protocol: BSK_LPS is a cell-based, multiplexed-readout assay that uses umbilical vein endothelium and peripheral blood mononuclear cells, a human vascular primary cell co-culture, with measurements taken at 24 hours after chemical dosing in a 96-well plate.BSK_LPS_PGE2 is an assay component measured in the BSK_LPS assay. It measures PGE2 antibody related to regulation of gene expression using ELISA technology.Data from the assay component BSK_LPS_PGE2 was analyzed into 1 assay endpoint. […]
Active and inactive are the calls of the source. Rule for the calls: active = hit-call score of the fitted dose curve at least 0.9, where 1 is the maximum; inactive = score below 0.9.
Respond using exactly one of the listed classes: active, inactive

Use the examples below as a reference point.
Lookup: Record request — test call for `O=CCCCC=O`
Found: inactive

Lookup: Record request — test call for `CCCCCCCC[Si](OCC)(OCC)OCC`
Found: inactive

Others:
Lookup: Record request — test call for `CCN(CC)C(=O)c1cc(S(=O)(=O)Cc2ccccc2)c(N2CCC(c3ccccc3)CC2)cc1N(CC)CCN(C)C`
Found: inactive

Lookup: Record request — test call for `CN1C(=O)CC[C@H]1c1cccnc1`
Found: inactive

Lookup: Record request — test call for COCC(C)OCC(C)OCC(C)O (stereo not drawn)
Found: inactive
